Please respond with reported IC50 for every item in the list.
# system-tested: JAK3 enzyme (Homo sapiens, UniProt P52333)
# Sequence (P52333 1-1124): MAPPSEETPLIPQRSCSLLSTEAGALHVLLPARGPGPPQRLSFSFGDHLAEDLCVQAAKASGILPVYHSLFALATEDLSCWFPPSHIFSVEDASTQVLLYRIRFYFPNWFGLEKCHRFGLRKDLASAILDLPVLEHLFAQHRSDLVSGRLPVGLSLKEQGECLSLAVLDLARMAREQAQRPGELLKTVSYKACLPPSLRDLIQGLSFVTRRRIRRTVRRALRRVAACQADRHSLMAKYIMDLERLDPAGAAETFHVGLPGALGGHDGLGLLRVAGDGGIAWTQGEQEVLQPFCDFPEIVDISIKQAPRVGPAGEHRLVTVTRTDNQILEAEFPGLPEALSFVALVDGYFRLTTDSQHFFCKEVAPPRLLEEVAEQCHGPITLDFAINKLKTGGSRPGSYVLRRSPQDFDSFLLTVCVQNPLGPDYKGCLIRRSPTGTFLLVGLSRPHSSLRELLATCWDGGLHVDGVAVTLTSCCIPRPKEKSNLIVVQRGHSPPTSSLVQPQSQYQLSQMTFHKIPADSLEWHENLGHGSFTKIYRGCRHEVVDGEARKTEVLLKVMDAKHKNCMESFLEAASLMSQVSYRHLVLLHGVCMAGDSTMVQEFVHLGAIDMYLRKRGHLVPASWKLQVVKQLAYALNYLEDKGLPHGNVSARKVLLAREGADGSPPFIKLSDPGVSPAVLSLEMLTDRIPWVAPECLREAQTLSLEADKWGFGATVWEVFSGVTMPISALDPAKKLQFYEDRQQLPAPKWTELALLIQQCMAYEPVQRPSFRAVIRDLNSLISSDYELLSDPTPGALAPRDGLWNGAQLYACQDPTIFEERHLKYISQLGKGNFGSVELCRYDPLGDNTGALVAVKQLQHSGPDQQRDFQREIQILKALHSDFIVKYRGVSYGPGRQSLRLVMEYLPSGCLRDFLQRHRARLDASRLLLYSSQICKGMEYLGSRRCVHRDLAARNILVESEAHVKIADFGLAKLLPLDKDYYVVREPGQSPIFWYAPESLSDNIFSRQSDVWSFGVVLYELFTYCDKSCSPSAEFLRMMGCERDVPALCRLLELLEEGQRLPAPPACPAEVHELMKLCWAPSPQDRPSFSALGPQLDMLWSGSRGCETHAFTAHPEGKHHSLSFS
# test-name: JAK Caliper Enzyme Assay at 1 mM ATP
# Type: biochemical
One number for each entry, in nM.

Examples with answers:
C=CC(=O)N1CC[C@@H](Nc2cnc3[nH]cc(C(=O)N[C@@H](C)COC)c3n2)[C@@H](OC)C1 [Example 312]: 56
C=CC(=O)N1CCN(c2cnc3[nH]cc(C(=O)NCC)c3n2)CC1(C)C: 1080
C=CC(=O)N1CCN(c2cnc3[nH]cc(C(=O)NCC4CC(F)(F)C4)c3n2)C[C@@H]1CC(C)C: 157
C=CC(=O)N1CCC[C@@H]1COc1cnc2[nH]cc(C(=O)N[C@@H](C)COC)c2n1 (single isomer, unassigned): 1210
C=CC(=O)N1CCC(Nc2cnc3[nH]cc(C(=O)NCc4ccc(F)c(C#N)c4)c3n2)CC1: 6

Respectfully, I request IC50 for each entry included below.
1. C=CC(=O)N1CCC(Nc2cnc3[nH]cc(C(=O)NCc4ccc(F)c(OC)c4)c3n2)CC1
2. C=CC(=O)N1CC[C@@H](CNc2cnc3[nH]cc(C(=O)N[C@H](C)COC)c3n2)C1 (single isomer, unassigned)

[A]
13
926
